PROTOCOL_NOTES: Selectivity index, ratio of CC50 for cytotoxicity against human HEK-293T cells to IC50 for antiviral activity against Influenza A virus A/WSN/33(H1N1) […] cells
Type: toxicity, cell-based
CONDITION_NOTES: read-out: Ratio CC50/IC50
In this section we review reported selectivity ratio values for a set of molecules.

Examples from the recorded data:
| STRUCTURE_STRING | selectivity ratio |
| --- | --- |
| O=C(COc1cccc2ccc(N3CCCC3)nc12)NCc1ccc(C(F)(F)F)cc1 | > 2.77 |
| c1cc(OCCCCCN2CCOCC2)c2nc(N3CCCC3)ccc2c1 | > 3.08 |
| CN(C)c1ccc2cccc(OCC(=O)NCc3ccccc3)c2n1 | > 7.02 |
| CC(C)(C)OC(=O)N[C@@H]1CCN(c2ccc3cccc(OCC(=O)NCc4ccccc4)c3n2)C1 | 9.99 |
| c1cc(OCCCN2CCOCC2)c2nc(N3CCCC3)ccc2c1 | > 1.97 |

Noted for CCOc1ccccc1CNC(=O)COc1cccc2ccc(N3CCCC3)nc12 : its selectivity ratio reads > 13.4

Noted for NC(=O)c1ncn([C@@H]2O[C@H](CO)[C@@H](O)[C@H]2O)n1 : its selectivity ratio reads > 6.51
